B1: library; a variant is named by its letters at N, in order (parent)
chain: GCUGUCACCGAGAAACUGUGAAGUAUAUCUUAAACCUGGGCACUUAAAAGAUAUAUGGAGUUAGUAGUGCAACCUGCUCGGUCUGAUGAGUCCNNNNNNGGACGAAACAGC

variants of: B1; test: normalized RNA/DNA level without ligand (relative to sTRSVctl = 100) (log10 (% of sTRSVctl)); HEK293T; ligand: cyclic di-GMP (c-di-GMP-II aptamer); higher = less ribozyme self-cleavage, higher mRNA level; settings: reporter: mCherry (pCS4076), ligand present: no
// values below are reported normalized RNA/DNA level without ligand (log10)
Returns: the value as a bare number; no unit string appended.

Answered cases to consult:
[[record]]
variant = "UAAAGG"
observed_value = 1.63

[[record]]
variant = "GCGUCG"
observed_value = 1.64

[[record]]
variant = "ACGUGG"
observed_value = 1.56

[[record]]
variant = "UACUUG"
observed_value = 1.73

[[record]]
variant = "UUAGAG"
observed_value = 1.63


Okay, next one:
Prompt: Consider the variant `UCGAUU` and give its measured normalized RNA/DNA level without ligand (log10).
Response: 1.55

These data points were gathered from the supplement of paper PMC6757056.
